Target: human galectin-3C (Gal-3C, C-terminal CRD of galectin-3) (Homo sapiens, UniProt P17931)
Construct: only the C-terminal domain was used (Gal-3C); 6xHis tag with TEV protease site (N, cleaved yes); made in house; host or cells: BL21 Escherichia coli (pET-15b)
Sequence (P17931 118-248 limits assumed): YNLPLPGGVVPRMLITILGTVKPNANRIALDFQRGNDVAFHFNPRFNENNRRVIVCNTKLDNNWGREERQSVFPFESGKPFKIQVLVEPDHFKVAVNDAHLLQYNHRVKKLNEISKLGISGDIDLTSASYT
Assay: Competitive fluorescence polarization assay, Gal-3C
Type: binding
Conditions: CSV supplement, unrounded mean; read-out: Gal3C_Kd_mean_uM
pKd: −log10 of the molar value.
Output 1 for pKd not less than 4; output -1 otherwise.

compound	test_target	class_name
CC(=O)N(c1cccc(C(F)(F)F)c1)[C@@H]1O[C@H](CO)[C@@H](O[C@@H]2O[C@H](CO)[C@H](O)[C@H](O)[C@H]2O)[C@H](O)[C@H]1O [Compound 3d]	human galectin-3C (Gal-3C, C-terminal CRD of galectin-3) (Homo sapiens, UniProt P17931)	-1
CC(=O)N(c1cccc(-c2cn(C)nn2)c1)[C@@H]1O[C@H](CO)[C@@H](O[C@@H]2O[C@H](CO)[C@H](O)[C@H](O)[C@H]2O)[C@H](O)[C@H]1O [Compound 3aa]	human galectin-3C (Gal-3C, C-terminal CRD of galectin-3) (Homo sapiens, UniProt P17931)	1
CC(=O)N(c1cc(Cl)cc(C(=O)O)c1)[C@@H]1O[C@H](CO)[C@@H](O[C@@H]2O[C@H](CO)[C@H](O)[C@H](O)[C@H]2O)[C@H](O)[C@H]1O [Compound 3ab]	human galectin-3C (Gal-3C, C-terminal CRD of galectin-3) (Homo sapiens, UniProt P17931)	1

###

Target: human galectin-1 (Gal-1, full length) (Homo sapiens, UniProt P09382)
Construct: Gal-1 is a prototype galectin consisting of a single CRD and was used in full length; 6xHis tag with TEV protease site (N, cleaved yes); made in house; host or cells: BL21 Escherichia coli (pET-15b)
Sequence (P09382 2-135): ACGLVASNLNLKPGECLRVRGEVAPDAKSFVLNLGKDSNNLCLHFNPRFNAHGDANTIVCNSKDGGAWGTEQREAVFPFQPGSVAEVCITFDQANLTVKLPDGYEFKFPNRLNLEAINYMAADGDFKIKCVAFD
Experiment: Competitive fluorescence polarization assay, Gal-1
Type: binding
Details: CSV supplement, unrounded mean; read-out: Gal1_IC50_mean_uM
Reported values of IC50 for individual entries

smiles	test_target	IC50 / µM
CC(=O)N(c1cccc(C(F)(F)F)c1)[C@@H]1O[C@H](CO)[C@@H](O[C@@H]2O[C@H](CO)[C@H](O)[C@H](O)[C@H]2O)[C@H](O)[C@H]1O	human galectin-1 (Gal-1, full length) (Homo sapiens, UniProt P09382)	1040
CC(C)C(=O)N(c1cccc(C(=O)O)c1)[C@@H]1O[C@H](CO)[C@@H](O[C@@H]2O[C@H](CO)[C@H](O)[C@H](O)[C@H]2O)[C@H](O)[C@H]1O	human galectin-1 (Gal-1, full length) (Homo sapiens, UniProt P09382)	1800
CC(=O)N(c1ccc(Cl)cc1)[C@@H]1O[C@H](CO)[C@@H](O[C@@H]2O[C@H](CO)[C@H](O)[C@H](O)[C@H]2O)[C@H](O)[C@H]1O	human galectin-1 (Gal-1, full length) (Homo sapiens, UniProt P09382)	654

###

Target: human galectin-1 (Gal-1, full length) (Homo sapiens, UniProt P09382)
Construct: Gal-1 is a prototype galectin consisting of a single CRD and was used in full length; 6xHis tag with TEV protease site (N, cleaved yes); made in house; host or cells: BL21 Escherichia coli (pET-15b)
Test: Competitive fluorescence polarization assay, Gal-1
Type: binding
Conditions: CSV supplement, unrounded mean; read-out: Gal1_IC50_mean_uM

smiles	scale_unit	IC50
CC(=O)N(c1ccc(F)cc1)[C@@H]1O[C@H](CO)[C@@H](O[C@@H]2O[C@H](CO)[C@H](O)[C@H](O)[C@H]2O)[C@H](O)[C@H]1O	µM	595
CC(=O)N(c1cccc(-c2ccc(C)o2)c1)[C@@H]1O[C@H](CO)[C@@H](O[C@@H]2O[C@H](CO)[C@H](O)[C@H](O)[C@H]2O)[C@H](O)[C@H]1O	µM	860
COc1ccc(N(C(C)=O)[C@@H]2O[C@H](CO)[C@@H](O[C@@H]3O[C@H](CO)[C@H](O)[C@H](O)[C@H]3O)[C@H](O)[C@H]2O)cc1	µM	973
CC(=O)N(c1ccc(Cl)c(Cl)c1)[C@@H]1O[C@H](CO)[C@@H](O[C@@H]2O[C@H](CO)[C@H](O)[C@H](O)[C@H]2O)[C@H](O)[C@H]1O	µM	659
CC(=O)N(c1cccc(-c2cn(C)nn2)c1)[C@@H]1O[C@H](CO)[C@@H](O[C@@H]2O[C@H](CO)[C@H](O)[C@H](O)[C@H]2O)[C@H](O)[C@H]1O	µM	899
COc1cc(N(C(C)=O)[C@@H]2O[C@H](CO)[C@@H](O[C@@H]3O[C@H](CO)[C@H](O)[C@H](O)[C@H]3O)[C@H](O)[C@H]2O)cc(OC)c1OC	µM	461
COC(=O)c1cc(N(C(C)=O)[C@@H]2O[C@H](CO)[C@@H](O[C@@H]3O[C@H](CO)[C@H](O)[C@H](O)[C@H]3O)[C@H](O)[C@H]2O)c2cc[nH]c2c1	µM	1030
CC(=O)N(c1cc(F)c(F)c(F)c1)[C@@H]1O[C@H](CO)[C@@H](O[C@@H]2O[C@H](CO)[C@H](O)[C@H](O)[C@H]2O)[C@H](O)[C@H]1O	µM	565
CC(=O)N(c1cc(Br)cc(C(=O)O)c1)[C@@H]1O[C@H](CO)[C@@H](O[C@@H]2O[C@H](CO)[C@H](O)[C@H](O)[C@H]2O)[C@H](O)[C@H]1O	µM	967
CC(=O)N(c1cccc(C(=O)O)c1)[C@@H]1O[C@H](CO)[C@@H](O[C@@H]2O[C@H](CO)[C@H](O)[C@H](O)[C@H]2O)[C@H](O)[C@H]1O	µM	1400
O=C(O)c1cccc(N(C(=O)c2ccccc2)[C@@H]2O[C@H](CO)[C@@H](O[C@@H]3O[C@H](CO)[C@H](O)[C@H](O)[C@H]3O)[C@H](O)[C@H]2O)c1	µM	1310

###

Reported values of IC50 for individual entries
Biological target: human galectin-3C (Gal-3C, C-terminal CRD of galectin-3) (Homo sapiens)
Construct: only the C-terminal domain was used (Gal-3C); 6xHis tag with TEV protease site (N, cleaved yes); made in house; host or cells: BL21 Escherichia coli (pET-15b)
Test: Competitive fluorescence polarization assay, Gal-3C
Format: binding
Conditions: CSV supplement, unrounded mean; read-out: Gal3C_IC50_mean_uM
measurement_label: IC50

molecule	reported
CC(=O)N(c1cc(Cl)cc(C(=O)O)c1)[C@@H]1O[C@H](CO)[C@@H](O[C@@H]2O[C@H](CO)[C@H](O)[C@H](O)[C@H]2O)[C@H](O)[C@H]1O	130 µM
O=C(O)c1cccc(N(C(=O)c2ccccc2)[C@@H]2O[C@H](CO)[C@@H](O[C@@H]3O[C@H](CO)[C@H](O)[C@H](O)[C@H]3O)[C@H](O)[C@H]2O)c1	120 µM
COc1ccc(N(C(C)=O)[C@@H]2O[C@H](CO)[C@@H](O[C@@H]3O[C@H](CO)[C@H](O)[C@H](O)[C@H]3O)[C@H](O)[C@H]2O)cc1OC	284 µM
CC(=O)N(c1cc(O)cc(C(=O)O)c1)[C@@H]1O[C@H](CO)[C@@H](O[C@@H]2O[C@H](CO)[C@H](O)[C@H](O)[C@H]2O)[C@H](O)[C@H]1O	32.2 µM
CC(=O)c1c[nH]c2cc(C(=O)O)cc(N(C(C)=O)[C@@H]3O[C@H](CO)[C@@H](S[C@@H]4O[C@H](CO)[C@H](O)[C@H](n5cc(-c6cccc(F)c6)nn5)[C@H]4O)[C@H](O)[C@H]3O)c12	0.154 µM
CO[C@@H]1O[C@H](CO)[C@@H](O[C@@H]2O[C@H](CO)[C@H](O)[C@H](O)[C@H]2O)[C@H](O)[C@H]1O [β-LacOMe, methyl β-lactoside, reference compound]	756 µM
COC(=O)c1cccc(N(C(C)=O)[C@@H]2O[C@H](CO)[C@@H](O[C@@H]3O[C@H](CO)[C@H](O)[C@H](O)[C@H]3O)[C@H](O)[C@H]2O)c1	241 µM
COc1cc(N(C(C)=O)[C@@H]2O[C@H](CO)[C@@H](O[C@@H]3O[C@H](CO)[C@H](O)[C@H](O)[C@H]3O)[C@H](O)[C@H]2O)cc(OC)c1OC	238 µM
CC(=O)N(c1ccccc1F)[C@@H]1O[C@H](CO)[C@@H](O[C@@H]2O[C@H](CO)[C@H](O)[C@H](O)[C@H]2O)[C@H](O)[C@H]1O	282 µM
CC(C)C(=O)N(c1cccc(C(=O)O)c1)[C@@H]1O[C@H](CO)[C@@H](O[C@@H]2O[C@H](CO)[C@H](O)[C@H](O)[C@H]2O)[C@H](O)[C@H]1O	113 µM
